# pIC50 values compiled below
- Measured On: ATP-dependent translocase ABCB1 (Homo sapiens)
- Sequence (P08183 whole entry): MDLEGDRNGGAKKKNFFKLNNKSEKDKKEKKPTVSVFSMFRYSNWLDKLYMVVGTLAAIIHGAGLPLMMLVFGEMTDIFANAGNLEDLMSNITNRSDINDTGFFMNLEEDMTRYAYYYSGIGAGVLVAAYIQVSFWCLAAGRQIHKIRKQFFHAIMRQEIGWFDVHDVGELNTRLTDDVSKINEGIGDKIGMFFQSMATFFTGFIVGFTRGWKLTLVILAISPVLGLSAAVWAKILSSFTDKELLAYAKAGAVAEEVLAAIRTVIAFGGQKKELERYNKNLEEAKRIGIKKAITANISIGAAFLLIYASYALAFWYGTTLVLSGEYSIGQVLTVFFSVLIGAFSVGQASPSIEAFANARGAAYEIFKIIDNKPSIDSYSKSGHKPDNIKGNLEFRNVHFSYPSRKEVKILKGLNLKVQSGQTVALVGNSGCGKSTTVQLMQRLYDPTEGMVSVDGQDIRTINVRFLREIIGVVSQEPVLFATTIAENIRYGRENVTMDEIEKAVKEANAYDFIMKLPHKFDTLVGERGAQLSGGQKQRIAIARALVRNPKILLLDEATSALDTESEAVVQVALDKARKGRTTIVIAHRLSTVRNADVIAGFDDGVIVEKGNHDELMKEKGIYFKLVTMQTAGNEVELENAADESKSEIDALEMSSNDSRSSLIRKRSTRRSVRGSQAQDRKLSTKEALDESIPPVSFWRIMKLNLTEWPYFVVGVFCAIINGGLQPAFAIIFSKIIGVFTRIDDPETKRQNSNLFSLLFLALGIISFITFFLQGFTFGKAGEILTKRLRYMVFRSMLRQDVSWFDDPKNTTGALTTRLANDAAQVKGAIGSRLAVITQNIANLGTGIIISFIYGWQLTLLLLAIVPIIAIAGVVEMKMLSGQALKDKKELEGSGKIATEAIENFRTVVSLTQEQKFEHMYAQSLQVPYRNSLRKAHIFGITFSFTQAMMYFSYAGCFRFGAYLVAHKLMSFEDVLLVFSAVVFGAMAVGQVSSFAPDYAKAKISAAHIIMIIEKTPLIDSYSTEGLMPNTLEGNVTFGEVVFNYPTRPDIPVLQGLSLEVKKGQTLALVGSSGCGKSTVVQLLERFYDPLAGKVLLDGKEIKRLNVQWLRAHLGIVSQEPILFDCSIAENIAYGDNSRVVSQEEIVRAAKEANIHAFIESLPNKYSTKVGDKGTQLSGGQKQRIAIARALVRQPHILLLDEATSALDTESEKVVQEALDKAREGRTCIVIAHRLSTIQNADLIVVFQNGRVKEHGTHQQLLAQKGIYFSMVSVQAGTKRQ
- Method: Inhibition of p-glycoprotein (unknown origin) expressed in MDCK-MDR1 cells
// field semantics: pIC50 = negative decimal log of concentration (mol/L)

CCOc1cc2c(cc1OCC)-c1c(-c3ccc(F)cc3)c(/C=N/c3ccc(O)cc3)c(-c3ccccc3)n1CC2	6.00

Pending molecule:
[ask] // pIC50 lookup, key: "CCOc1ccc(-c2c(C=O)c(-c3ccco3)n3c2-c2cc(OCC)c(OCC)cc2CC3)cc1OCC"
[reply] 6.72

====

- Measured On: Acetylcholinesterase (Homo sapiens, UniProt P22303)
- Sequence (P22303 whole entry): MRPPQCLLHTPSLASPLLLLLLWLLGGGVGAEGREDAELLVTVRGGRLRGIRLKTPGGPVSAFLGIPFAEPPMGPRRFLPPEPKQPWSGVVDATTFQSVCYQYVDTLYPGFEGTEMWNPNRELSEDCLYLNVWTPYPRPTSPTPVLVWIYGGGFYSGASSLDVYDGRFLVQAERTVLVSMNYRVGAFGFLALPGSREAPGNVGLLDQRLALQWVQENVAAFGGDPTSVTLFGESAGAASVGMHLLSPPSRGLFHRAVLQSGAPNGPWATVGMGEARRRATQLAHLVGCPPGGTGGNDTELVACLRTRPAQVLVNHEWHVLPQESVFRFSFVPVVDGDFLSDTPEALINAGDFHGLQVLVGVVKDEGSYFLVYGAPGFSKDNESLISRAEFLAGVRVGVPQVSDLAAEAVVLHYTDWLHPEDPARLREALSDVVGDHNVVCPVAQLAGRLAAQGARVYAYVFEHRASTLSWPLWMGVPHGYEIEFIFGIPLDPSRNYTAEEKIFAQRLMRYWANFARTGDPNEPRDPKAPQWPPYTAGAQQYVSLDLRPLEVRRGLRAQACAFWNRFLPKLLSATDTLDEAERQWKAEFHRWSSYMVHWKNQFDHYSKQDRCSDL
- Method: Inhibition of human recombinant AChE using acetylthiocholine iodide substrate incubated for 5 mins by Ellman's spectrophotometric analysis
Metric Name: pIC50
// field semantics: pIC50 = negative decimal log of concentration (mol/L)

[ask] // pIC50 lookup, key: "CCOc1cc2c(cc1OCC)-c1c(-c3ccc(Cl)cc3)c(/C=N/c3ccc(/N=C/c4c(-c5ccc(Cl)cc5)c5n(c4-c4ccccc4)CCc4cc(OC)c(OC)cc4-5)cc3)c(-c3ccccc3)n1CC2"
[reply] 5.33
